read-out: CFLAR gene, CFLAR (gene 8837); experiment: LTEA_HepaRG_CFLAR: Life Technologies and Expression Analysis (LTEA) Assay for CFLAR gene using HepaRG (AID 2283455); conditions: mRNA level, 48 h; actives raise or lower the signal
Activity calls are given as the source filed them. Rule for the calls: active = hit-call score of the fitted dose curve at least 0.9, where 1 is the maximum; inactive = score below 0.9.

- Smiles input: "COC(=O)CCCCC(=O)OC"
  AC50: "inactive"
- Smiles input: "O=C(OCCOCCOC(=O)c1ccccc1)c1ccccc1"
  AC50: "inactive"
- Smiles input: "COc1ccc([N+](=O)[O-])cc1N"
  AC50: "inactive"
- Smiles input: "CC(=O)NC1(c2cccc(F)c2)CCN(CC[C@@]2(c3ccc(Cl)c(Cl)c3)CN(c3ccccc3)C(=O)CO2)CC1"
  AC50: "56.1 µM (active)"
- Smiles input: "C[C@@H]1C[C@H]2[C@@H]3CCC4=CC(=O)C=C[C@]4(C)[C@@]3(F)[C@@H](O)C[C@]2(C)[C@@]1(O)C(=O)COP(=O)(O)O"
  AC50: "inactive"

----------
Read-out: Cytochrome P450 (CYP1A1), CYP1A1 (gene 1543)
Test: LTEA_HepaRG_CYP1A1: Life Technologies and Expression Analysis (LTEA) Assay for Cytochrome P450 (CYP1A1) using HepaRG (AID 2283454)
Conditions: mRNA level, 48 h; actives raise or lower the signal
Method: LTEA_HepaRG is a cell based, multiplexed-readout assay that uses HepaRG, a human liver cell line, with measurements taken at 48 hours after chemical dosing on a 96-well plate.LTEA_HepaRG_CYP1A1 is one of 102 assay component(s) measured in the LTEA HepaRG cell culture assay. It is a marker of NR mediated metabolism.Data from the assay component LTEA_HepaRG_CYP1A1 was analyzed into 1 endpoint. […]
Active and inactive are the calls of the source. The calls were made as follows: active = hit-call score of the fitted dose curve at least 0.9, where 1 is the maximum; inactive = score below 0.9.

- Smiles input: "O=C(O)Cc1cc(I)c(Oc2cc(I)c(O)c(I)c2)c(I)c1"
  AC50: "inactive"
- Smiles input: "ClC1=C(Cl)C(Cl)(Cl)C(Cl)=C1Cl"
  AC50: "inactive"
- Smiles input: "CCCOc1sc(C(=O)N2CCC(c3cc(CN)ccc3F)CC2)c(C)c1Br"
  AC50: "inactive"
- Smiles input: "CC(=O)CC(C)(C)O"
  AC50: "inactive"
- Smiles input: "OCCC(F)(F)C(F)(F)C(F)(F)C(F)(F)C(F)(F)C(F)(F)F"
  AC50: "84.4 µM (active)"
- Smiles input: "CC[C@H](C)[C@@H](C(=O)O)n1sc2ccccc2c1=O"
  AC50: "50 µM (active)"
- Smiles input: "CCCCCCCCCCCCCCCS(=O)(=O)Oc1ccccc1"
  AC50: "11.4 µM (active)"

----------
Read-out: Nuclear factor erythroid 2-related factor 2 (Homo sapiens) (UniProt Q16236)
Sequence (Q16236 whole entry, looked up): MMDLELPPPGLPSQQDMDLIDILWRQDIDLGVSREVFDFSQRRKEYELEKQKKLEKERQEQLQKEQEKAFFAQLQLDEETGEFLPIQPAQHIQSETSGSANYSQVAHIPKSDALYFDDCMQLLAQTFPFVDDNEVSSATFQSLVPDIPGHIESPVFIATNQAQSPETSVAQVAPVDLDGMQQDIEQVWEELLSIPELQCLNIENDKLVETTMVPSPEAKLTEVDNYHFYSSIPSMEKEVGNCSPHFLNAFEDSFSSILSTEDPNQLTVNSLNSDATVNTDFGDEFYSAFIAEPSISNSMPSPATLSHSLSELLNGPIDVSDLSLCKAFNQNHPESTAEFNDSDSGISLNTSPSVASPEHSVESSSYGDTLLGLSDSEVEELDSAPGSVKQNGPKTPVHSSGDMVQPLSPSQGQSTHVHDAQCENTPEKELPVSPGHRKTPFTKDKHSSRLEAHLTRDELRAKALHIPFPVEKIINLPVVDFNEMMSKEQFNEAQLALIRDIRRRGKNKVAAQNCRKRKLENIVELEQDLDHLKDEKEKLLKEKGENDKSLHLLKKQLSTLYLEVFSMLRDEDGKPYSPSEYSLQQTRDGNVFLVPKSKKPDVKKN
Assay: LTEA_HepaRG_NFE2L2: Life Technologies and Expression Analysis (LTEA) Assay for Nuclear factor erythroid 2-related factor 2 (NFE2L2) Transcription Factor using HepaRG (AID 2283527)
Details: mRNA level, 48 h; actives raise or lower the signal
Procedure: LTEA_HepaRG is a cell based, multiplexed-readout assay that uses HepaRG, a human liver cell line, with measurements taken at 48 hours after chemical dosing on a 96-well plate.LTEA_HepaRG_NFE2L2 is one of 102 assay component(s) measured in the LTEA HepaRG cell culture assay. It is a marker of Inflammation/injury.Data from the assay component LTEA_HepaRG_NFE2L2 was analyzed into 1 endpoint. […]
The source made the active and inactive calls. Rule for the calls: active = hit-call score of the fitted dose curve at least 0.9, where 1 is the maximum; inactive = score below 0.9.
Labels: Y (active), N (inactive)

- Smiles input: "CC(C)(C)c1cc(C(C)(C)C)c(O)c(C(C)(C)C)c1"
  Assigned label: "N"
- Smiles input: "COC(=O)CCCCC(=O)OC"
  Assigned label: "N"
- Smiles input: "CCCCCCCCCCCCc1ccccc1S(=O)(=O)O"
  Assigned label: "Y"
- Smiles input: "CCCCOCCO"
  Assigned label: "N"
- Smiles input: "O=C(O)Cc1cc(I)c(Oc2cc(I)c(O)c(I)c2)c(I)c1"
  Assigned label: "Y"
- Smiles input: "OC1CCCCC1"
  Assigned label: "N"
- Smiles input: "OCCC(F)(F)C(F)(F)C(F)(F)C(F)(F)C(F)(F)C(F)(F)C(F)(F)C(F)(F)F"
  Assigned label: "N"

----------
read-out: catalase (CAT), CAT (gene 847); assay: LTEA_HepaRG_CAT: Life Technologies and Expression Analysis (LTEA) Assay for catalase (CAT) using HepaRG (AID 2283452); settings: mRNA level, 48 h; actives raise or lower the signal
Calls of active or inactive are those of the source. How the source made its calls: active means hit-call score of the fitted dose curve at least 0.9, where 1 is the maximum; inactive means score below 0.9.
Labels: active, inactive

- Molecule: "CC#C[C@]1(O)CC[C@H]2[C@@H]3CCC4=CC(=O)CCC4=C3[C@@H](c3ccc(N(C)C)cc3)C[C@@]21C"
  Assigned label: "active"
- Molecule: "c1ccc2c(c1)ccc1ccccc12"
  Assigned label: "inactive"
- Molecule: "CN(C)C=O"
  Assigned label: "inactive"
- Molecule: "CC(O)CO (stereo not given)"
  Assigned label: "inactive"
- Molecule: "CCc1ccc(CCOc2ccc(CC3SC(=O)NC3=O)cc2)nc1 (stereo not given)"
  Assigned label: "active"

----------
test: ATG_MRE_CIS: Attagene CIS-FACTORIAL HepG2 Assay for human Metal Responsive Element (MRE) (AID 2282954); details: HepG2 MRE cis-reporter transcription, Attagene multiplex; actives raise or lower the signal
Calls of active or inactive are those of the source. Rule for the calls: active = hit-call score of the fitted dose curve at least 0.9, where 1 is the maximum; inactive = score below 0.9.
Labels: active, inactive

- Molecule: "CC(C)CCCCCCOC(=O)CCCCC(=O)OCCCCCCC(C)C"
  Assigned label: "inactive"
- Molecule: "CCCCC[C@H](O)CC(=O)CCc1ccc(O)c(OC)c1"
  Assigned label: "inactive"
- Molecule: "CCCOc1sc(C(=O)N2CCC(c3cc(CN)ccc3F)CC2)c(C)c1Br"
  Assigned label: "inactive"
- Molecule: "N#C[C@@H]1CC(F)(F)CN1C(=O)CNC1CC2CCC(C1)N2c1ncccn1 (stereo not given in full)"
  Assigned label: "inactive"
- Molecule: "CCCCC(CC)COC(=O)CCCCC(=O)OCc1ccccc1 (stereo not given)"
  Assigned label: "inactive"
- Molecule: "C=C(C)C(=O)OCCC(F)(F)C(F)(F)C(F)(F)C(F)(F)C(F)(F)C(F)(F)F"
  Assigned label: "inactive"
- Molecule: "CCCCCCC(=O)O"
  Assigned label: "inactive"
- Molecule: "CC[C@H](C)[C@@H](C(=O)O)n1sc2ccccc2c1=O"
  Assigned label: "inactive"
- Molecule: "OC1CCCCC1"
  Assigned label: "inactive"
- Molecule: "CN(C)C=O"
  Assigned label: "inactive"
- Molecule: "Oc1cc2ccccc2c2ccccc12"
  Assigned label: "inactive"
- Molecule: "CC(O)C(=O)O (stereo not given)"
  Assigned label: "inactive"
- Molecule: "O=C(/C=C/c1ccc(O)cc1)CC(=O)/C=C/c1ccc(O)cc1"
  Assigned label: "active"
- Molecule: "COCC(C)O (stereo not given)"
  Assigned label: "inactive"
- Molecule: "c1ccc2c(c1)Cc1ccccc1-2"
  Assigned label: "inactive"
- Molecule: "CCC(C)(C)C1CCC(O)CC1 (stereo not given)"
  Assigned label: "inactive"
- Molecule: "CN1CCN(c2ccccc2/C=C2\\SCCN(c3ccc(Cl)c(Cl)c3)C2=O)CC1"
  Assigned label: "inactive"
- Molecule: "CCc1ccc(CCOc2ccc(CC3SC(=O)NC3=O)cc2)nc1 (stereo not given)"
  Assigned label: "inactive"
- Molecule: "CC(=O)CC(C)(C)O"
  Assigned label: "inactive"
- Molecule: "Cc1ccc(S(=O)(=O)O)c(C)c1"
  Assigned label: "inactive"

----------
read-out: E-selectin (Homo sapiens) (UniProt P16581); test: BSK_SAg_Eselectin: BioMAP Diversity Plus: SAg Assay for Eselectin Biomarker Activity (AID 2283091); details: primary human HUVEC with PBMC; actives raise or lower the signal
Sequence (P16581 whole entry, looked up): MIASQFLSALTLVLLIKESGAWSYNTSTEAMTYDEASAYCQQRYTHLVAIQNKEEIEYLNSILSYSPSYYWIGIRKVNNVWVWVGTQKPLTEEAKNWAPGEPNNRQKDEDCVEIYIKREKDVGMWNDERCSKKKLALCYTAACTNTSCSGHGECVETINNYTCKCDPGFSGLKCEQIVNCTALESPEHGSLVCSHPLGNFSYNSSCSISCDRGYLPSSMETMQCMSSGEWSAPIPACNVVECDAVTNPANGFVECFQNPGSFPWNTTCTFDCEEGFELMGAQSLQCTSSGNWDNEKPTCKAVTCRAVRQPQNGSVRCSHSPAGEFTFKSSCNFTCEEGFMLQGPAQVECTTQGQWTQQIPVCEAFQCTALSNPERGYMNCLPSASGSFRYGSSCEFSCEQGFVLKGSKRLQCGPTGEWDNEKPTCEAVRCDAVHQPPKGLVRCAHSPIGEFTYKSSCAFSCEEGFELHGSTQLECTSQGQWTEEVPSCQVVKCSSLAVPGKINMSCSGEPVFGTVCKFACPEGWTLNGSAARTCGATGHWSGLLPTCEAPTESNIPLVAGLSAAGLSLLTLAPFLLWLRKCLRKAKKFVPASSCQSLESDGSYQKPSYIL
Activity calls are given as the source filed them. The calls were made as follows: active = hit-call score of the fitted dose curve at least 0.9, where 1 is the maximum; inactive = score below 0.9.
Labels: active, inactive

- Compound: "CCCCC(CC)COC(=O)CCCCC(=O)OCC(CC)CCCC (configuration not stated)"
  Assigned label: "inactive"
- Compound: "CCC(=C(c1ccc(O)cc1)c1ccc(OCCN(C)C)cc1)c1ccccc1"
  Assigned label: "active"
- Compound: "CCCOc1sc(C(=O)N2CCC(c3cc(CN)ccc3F)CC2)c(C)c1Br"
  Assigned label: "active"
- Compound: "CCC(C)(C)C1CCC(O)CC1 (configuration not stated)"
  Assigned label: "inactive"
- Compound: "CC1=C(/C=C/C(C)=C/C=C/C(C)=C/C(=O)O)C(C)(C)CCC1"
  Assigned label: "active"
- Compound: "CC[C@H](c1ccc(O)cc1)[C@@H](CC)c1ccc(O)cc1"
  Assigned label: "active"
- Compound: "CC(C)(C)c1cccc(C(C)(C)C)c1O"
  Assigned label: "inactive"
- Compound: "O=C(OCCOCCOC(=O)c1ccccc1)c1ccccc1"
  Assigned label: "inactive"
- Compound: "CCCCC(CC)COC(=O)CCCCC(=O)OCc1ccccc1 (configuration not stated)"
  Assigned label: "inactive"
- Compound: "CC(C)CCCCCCOC(=O)CCCCC(=O)OCCCCCCC(C)C"
  Assigned label: "inactive"
- Compound: "OC1CCC(C2CCCCC2)CC1 (configuration not stated)"
  Assigned label: "inactive"
- Compound: "CCCOC(=O)c1ccc(O)cc1"
  Assigned label: "inactive"
- Compound: "CCc1nn(C2CCCCC2)c2cc(C3(C#N)CCC(C(=O)O)CC3)ccc12 (configuration not stated)"
  Assigned label: "active"
- Compound: "CC(C)(C)CC(C)(C)c1ccc(O)c(-n2nc3ccccc3n2)c1"
  Assigned label: "inactive"
- Compound: "CC#C[C@]1(O)CC[C@H]2[C@@H]3CCC4=CC(=O)CCC4=C3[C@@H](c3ccc(N(C)C)cc3)C[C@@]21C"
  Assigned label: "active"
- Compound: "CCCCCCCCCCCCCC[N+](C)(C)C"
  Assigned label: "active"
- Compound: "CN1CCN(c2ccccc2/C=C2\\SCCN(c3ccc(Cl)c(Cl)c3)C2=O)CC1"
  Assigned label: "inactive"
